B1: TPR t1 (parent)
chain: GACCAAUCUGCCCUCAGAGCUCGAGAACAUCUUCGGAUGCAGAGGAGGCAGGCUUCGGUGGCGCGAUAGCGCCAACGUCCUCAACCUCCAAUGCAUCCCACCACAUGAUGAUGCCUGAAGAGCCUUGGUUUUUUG

variants of: B1; test: polymerase ribozyme fitness, log enrichment relative to wild type (log ratio); higher = more active; in vitro selection for triplet polymerase activity
# if value of polymerase ribozyme fitness (log ratio) reaches -1, tag class 1; if it stays below, tag class 0

See these solved cases before continuing.
primary-sequence	cat
GACCAAUCUGCCCUCAGAGCUCGAGAACAUCUUCGGAUGCAGAGGAGGCAUGCUUCGGUGGUGCGAUAGCGCCAACGUCCUCAACCUCCAAUGCAUCCCACCACAUGAUGAGGCCUGAAGAGCCUUGGUUUUUUG	class 0
GACCAAUCUGCCCUCAGAGCUCGAGAACAUCUUCGGAUGGAGAGGAGGCAGGCUUCGGUGACGCGAUAGCGCCAACGUCCUCAACCUCCAAUGCAUCCCACCAAACGAUGAUGCCUGAAGAGCCUUGGUUUUUUG	class 0
GACCAAUCUGCCCUCAGAGCUCGAGAACAUCUUCGGAUGCAGAGGAGGCAGGCUUCGGUGGCGCGAUAGCGCCAACGUCCUCAACCUCCAAUGCAUCCCACCACAAGAUGAUGCCUGAAGAACCUUGGUUUUUUG	class 1
GACCAAUCUGCCCUCAGAGCUCGAGAACAUCUUCGGAUACAGAGGAGGCAGGCUUCAGUCGCGCGAUAGCGCCAACGUCCUCAACCUCCAAUGCAUCCCAACACAUGAUGAUCCCUGAAGAGCCUUGGUUUUUUG	class 0
GACCAAUCUGCCCUGAGAGCUCGAGAACAUCUUCGGGUGCAGAGGAGGCAGGCUUCGGUGGCGCGUUAGCGCCAACGUCCUCAACCUCCAAUGCAUCCCACCACAUGAUGAUGCCUGAAGAGCCUUGGUUUUUUG	class 0

Problem: Is polymerase ribozyme fitness (log ratio) for `GACCACUCUGCCCUCAGAGCUCGAGAACAUCUUCGGAUGCAGAGGAGGCAGGCUUCGGUGGCGCGAUAGCGCCAACGUCCUCAACCUCCAAUGCAUCCCACCACAUGAUGAUUCCUGAAGAGCCUUGGUUUUUUG` at or above -1?
Result: class 0

Problem: Is polymerase ribozyme fitness (log ratio) for `GACCAAUCUGCCCUCAGAGCUCGAGAACAUCUUCGCAUGCAGAGGAGGCAGGCUUCGGUGGCGCGAUAGCGCCAACGUCCUCAACCUCCAAUGCAUCCCACCACAUGAUGAUGCCUGAAGAGCCUUGGUGUUUUG` at or above -1?
Result: class 0

Problem: Is polymerase ribozyme fitness (log ratio) for `GACCAAUGUGCCCUCAGAGCUCGAGAACAUCUUCGGAUGCAGAGGAGUCAGGCUUCGCUUGCGCGAUAGCGCCAACGUCCUCAACCUCCAAUGCAUCCCACCACAUGAUGAUGCCUGAAGAGCCGUGGUUUUUUG` at or above -1?
Result: class 1

Problem: Is polymerase ribozyme fitness (log ratio) for `GACCAAUCUGCCCUCAGAGCUCGAGAACAUCUUCGGAUGCAGAGGUGGCAGGCUUCGGUGGCGCGAUAGCGCCAACGUCCUCAACCUCCAAUGCAUCCCACCACAUUAUGAUGCCUGAAGAGCCUUGGUUUUUUG` at or above -1?
Result: class 0

Problem: Is polymerase ribozyme fitness (log ratio) for `GACCAAUCUGCCCCCAGAGCUCGAGAACAUCUUCGGAUGCAGAGGAGGAAGGCUUUGGUGGCGCGAUAGCGCCAACGUCCUCAACCUCCAAGGCAUUCCACCACAUGAUGUUGCCUGAAGAGCCUUGGUUUUUUG` at or above -1?
Result: class 0

Problem: Is polymerase ribozyme fitness (log ratio) for `GACCUAUCUGCCCUCAGAGCUCGAGAACAUCUUCGGGUGCAGAGGAGGCAGGCUUCGGUGGCGCGAUAGCGUCAACGUCCUCAACCUCCAAUGCAUCCCACCACAUGAUGAUGCCUGAAGAGCCUUGGUUUUUUG` at or above -1?
Result: class 1

Problem: Is polymerase ribozyme fitness (log ratio) for `GACCAAUCUGCCCUCAGAGCUCGAGAACAUCAUCGGAUGUAGAGGAGGCAGGCUUCGGUGGCGCGAUAGCGCCAACGUCCUCAACCUCCAAUGCAUCCCAACACAUGAUGAUGCCUGAAGAGCCUUGGUUUUUUG` at or above -1?
Result: class 0

Problem: Is polymerase ribozyme fitness (log ratio) for `GAUCAAUCUGCACUCAGAGCUCGAGAACAUCUUCGGAUGCAGAGGAGGCAGGCUUCGGUGGCGCGAUAGCGCCAACGUGCUCAACCUCCAAUGCAUCCCACCACAUGAUGAUGCCUGAAGAGCCUUGGUUUUUUG` at or above -1?
Result: class 0

Problem: Is polymerase ribozyme fitness (log ratio) for `GACCAAUCUGCCCUCAGAGCUCGAGAACAUCUUCGGAUGCAGAGGAGGCAGGUUUCGGUGGCGCGAUAGCGCCAACGUCCUCAACCUCCAAUGCAUCCCACCACAUGAUGAUGCCUGAAGAGCCUCGGUUUUUUG` at or above -1?
Result: class 0

Problem: Is polymerase ribozyme fitness (log ratio) for `GACCAAUCUGCCCUCAGAGCUAGAGAACAUCUUCGGAUGCAGAGAAGGCAGGGUUCGGUGGCGCGAUAGCGCCAACGUCCUCAACCUGCAAUGCAUCCCACCACAUGAUGUUGCCUGAAGAGCCUUGGUUUUUUG` at or above -1?
Result: class 0

Problem: Is polymerase ribozyme fitness (log ratio) for `GACCAAUCUGCCCUCAGAGCUCGAGAACAUCUUCGGAUGCAGAGGAGGCAGGCUUGGGUGGCGCGAUACCGCCAACGUCCUCCACCUCCAAUGCAUCCCACCAUAUGAUGAUGCCUGAAGAGCCUUGGUUUUUUA` at or above -1?
Result: class 0

Problem: Is polymerase ribozyme fitness (log ratio) for `GACCAAUCUGCCCUCAGAGCUCGAGAACAUCUUCGGAUGCAGAGGAGGCAGGCUUCGGUAGCGCGAUAGCGCCAACGUCCUCAACCUCCAAUGCAUCCCACCACAUGAUGAUGCCUGAAGAGACUUGGUUUUUUG` at or above -1?
Result: class 1

Problem: Is polymerase ribozyme fitness (log ratio) for `GACCAAUCUGCCCUCAGAGCUCGAGAACAUCUUCGGAUGCAGAGGAAGCAGGCUUCGGUGGCGCGAUAGCGCCAACGCCCUCAACCUCCAAUGCAUCCCACCACAUGAUGAUGCCUGAAGAGCCUUGGUUUUUUG` at or above -1?
Result: class 0

Problem: Is polymerase ribozyme fitness (log ratio) for `GACCAAUCUGGCCUCAGAGCUCGAGAACAUCUUCGGAUGCAGAGGAGGCAGGCUUCGGUGACGCGAUAGCGCCAACGUCCUCAACCUCCAAUGCAUCCCACCACAUGAUGAUGCCUGAAGAGCAUUGGUUUUUUG` at or above -1?
Result: class 1

Problem: Is polymerase ribozyme fitness (log ratio) for `GACCAAUCUGCCCUCAGAGCUCGAGAACAUCUUCGGAUGCAGAGGAGGCAGGCUGCGGUGGCGCGAUAGCGCUAACGUCCUCAACCUCCAAUGCAUCCCACCACAUGAUAAUGCCUGAAGAGCCUUGGUUUUUUG` at or above -1?
Result: class 1

Problem: Is polymerase ribozyme fitness (log ratio) for `GACCAAUCUGCCCUCAGAGCUCGAGAACAUCUUCGGAUGCAGAGGAGCCAGGCUUCGGUGGCGCGAUAGCGCCAACGUCCUCAGGCUCCAAUGCAUCCCACCACAUGAUGAUGCAUGAAGAGCCUUUGUUUUUUG` at or above -1?
Result: class 0

Source of measurements: the RNAGym collection of RNA variant scans (doi:10.1073/pnas.2313332121)
